measurementTarget: human PD-L1 expressed on cell surface (human, UniProt Q9NZQ7 19-290)
Sequence (Q9NZQ7 19-290 limits assumed): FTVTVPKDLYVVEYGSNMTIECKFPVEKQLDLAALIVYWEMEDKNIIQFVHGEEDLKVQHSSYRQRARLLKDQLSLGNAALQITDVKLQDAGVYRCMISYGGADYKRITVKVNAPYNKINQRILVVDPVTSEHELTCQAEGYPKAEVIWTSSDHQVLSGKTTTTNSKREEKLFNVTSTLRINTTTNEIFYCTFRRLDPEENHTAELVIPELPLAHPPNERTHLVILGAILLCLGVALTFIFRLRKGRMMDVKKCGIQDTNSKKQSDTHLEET
test: cell-based or functional assay

binder	Internalization (%), FACS, 1 µg/ml, 4 h
74A9 (antibody, human IgG1, V domains shown) VH: QSVEESGGRLVTPGTPLTLTCAVSGFSLSTYALGWVRQAPGKGLEWIGSISIGGATYYASWAKGRFTISKTSTTVDLKIASPTTEDTATYFCARNVDSIYLDAFHTWGPGTLVTVSL VL: DIVMTQTPASVEAAVGGTVTIKCQASQNIYNNLAWYQQKPGQPPKLLIYRASTLASGVPSRFKGSGSGTEYTLTISDLECDDAATYYCQTYYLTTTTNAFGGGTEVVVK	9.2
57F11 (antibody, human IgG1, V domains shown) VH: QEHLEESGGGLVQPEGALTLTCTASGFSFSGDYYMSWVRQAPGKGLEWIASIYTGSLNTYYATWAKGRFTISIASSTTVTLQVTSLTAADTATYFCARRTKNGDYGYFDLWGPGTLVTVSS VL: YDMTQTPASVEVAVGGTVTIKCQASQSINDRLAWYQQKPGQPPKLLIYAASTLASGVPSRFKGSGSGTEFTLTISDLECADAATYYCQQGWTVSSLENAFGGGTEVVAK	16.8
62E6 (antibody, human IgG1, V domains shown) VH: QEQLEESGGDLVKPEGSLTLTCTASGFSFSGDYYMSWVRQAPGKGLEWIASIYTGSLNIYYATWAKGRFTISLTSSTTVTLQMTSLTAADTATYFCARRNKNADYGHFDLWGPGTLVTVSS VL: YDMTQTPASVEVAVGGTVTIKCQASQSINDRLAWYQQKPRQPPKLLIYGASTLASGVPSRFKGSGSGTEFTLTISDLECVDAATYYCQQGWTVSSLDNAFGGGTEVVAK	17.7
56H3 (antibody, human IgG1, V domains shown) VH: QEQLVESGGGLVQPEGSLTLTCTASEFSFSNNYYMSWVRQAPGKGLEWLGSIGIGSGITDYASWAKGRFTISKASSTTVTLQMTTLTAADTAIYFCARWTSGGGGFGLWGPGTLVTVSS VL: QVLTQTSSPVSAAVGGTVTINCQSSQTIYSDYLFWYQQKPGQPPKLLIYQTSTLASGVPSRFSGSGSGTQFTLTISGVQCDDAATYYCQGYYSGYIWTFGGGTEVVVN	9.1
73C8 (antibody, human IgG1, V domains shown) VH: QEQLEESGGGLVQPEGSLTLTCTVSGFSFSGDYYMSWVRQAPGKGLEWVASIYTGSLNTYYATWAKGRFTISLTSSTTVTLQMTSLTAADTATYFCARRNKNADYGHFDLWGPGTLVTVSS VL: YDMTQTPASVEVAVGGTVTIKCQASQSINDRLAWYQQKPGQPPKLLIYAASTLASGVPSRFRGSGSGTDFTLTISDLECADAATYYCQQGWTVSSLDNAFGGGTEVVAM	15.7
